Every entry's value here was drawn from ChEMBL document CHEMBL1132497.

# Tested System: Serotonin 2 (5-HT2) receptor (Rattus norvegicus, UniProt P30994+P08909+P14842)
# Run Description: Inhibitory activity against rat cortical 5-hydroxytryptamine 2 receptor
# Format: protein assay
Measured Ki values are reported for all entries that follow.
Number only, in nM; omit the unit.

Past entries and their recorded results:
- Smiles Notation: "Cl.Cl.O=C(NCCN1CCN(c2cccc(Cl)c2)CC1)C12C[C@H]3C[C@@H](C1)C[C@@H](C2)C3"
  Ki [nM]: 16.4
- Smiles Notation: "COc1ccccc1N1CCN(CCCNC(=O)C23CC4C[C@@H](C[C@H]2C4)C3)CC1.Cl.Cl"
  Ki [nM]: 43.5
- Smiles Notation: "COc1ccccc1N1CCN(CCCNC(=O)NC23C[C@H]4C[C@@H](C2)C[C@@H](C3)C4)CC1.Cl.Cl"
  Ki [nM]: 348

Form: compound = `O=C(NCCN1CCN(c2cccc(Cl)c2)CC1)NC12C[C@H]3C[C@@H](C1)C[C@@H](C2)C3` ; Ki = 89

###

# Tested System: UniProt:P61169
# Sequence (P61169 whole entry): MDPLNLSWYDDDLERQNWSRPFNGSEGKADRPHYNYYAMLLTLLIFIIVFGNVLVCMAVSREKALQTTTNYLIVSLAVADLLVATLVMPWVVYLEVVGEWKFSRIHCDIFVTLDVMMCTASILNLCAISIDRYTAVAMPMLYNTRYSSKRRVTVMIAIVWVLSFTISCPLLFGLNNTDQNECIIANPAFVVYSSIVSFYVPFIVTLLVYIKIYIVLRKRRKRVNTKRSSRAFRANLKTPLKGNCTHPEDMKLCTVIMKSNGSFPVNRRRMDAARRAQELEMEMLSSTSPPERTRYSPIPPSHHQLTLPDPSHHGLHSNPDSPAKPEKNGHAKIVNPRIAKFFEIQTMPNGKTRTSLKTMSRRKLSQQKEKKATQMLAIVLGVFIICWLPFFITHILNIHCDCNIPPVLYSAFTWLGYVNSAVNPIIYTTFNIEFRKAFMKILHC
# Run Description: Inhibitory activity against Dopamine receptor D2 of rat limbic tissue at 1 uM
# Type: tissue-based
# Setup Conditions: Limbic system
Measured inhibition values are reported for all entries that follow.
Number only, in %; omit the unit.

- Smiles Notation: "C[C@@]12C[C@@H]3C[C@@H](CC(CC(=O)NCCCN4CCN(c5ncccn5)CC4)(C3)C1)C2"
  Value: 20
- Smiles Notation: "C[C@@]12C[C@@H]3C[C@@H](CC(CC(=O)NCCN4CCN(c5cccc(Cl)c5)CC4)(C3)C1)C2"
  Value: 40
- Smiles Notation: "Cl.Cl.Cl.O=C(CCN1CCN(c2ncccn2)CC1)NC12C[C@H]3C[C@@H](C1)C[C@@H](C2)C3"
  Value: 14

Below: the item to evaluate.
Form: compound = `Cl.Cl.O=C(NCCCN1CCN(c2cccc(Cl)c2)CC1)NC12C[C@H]3C[C@@H](C1)C[C@@H](C2)C3` ; inhibition = 38

###

# Tested System: 5-hydroxytryptamine receptor 1A (Rattus norvegicus, UniProt P19327)
# Sequence (P19327 whole entry): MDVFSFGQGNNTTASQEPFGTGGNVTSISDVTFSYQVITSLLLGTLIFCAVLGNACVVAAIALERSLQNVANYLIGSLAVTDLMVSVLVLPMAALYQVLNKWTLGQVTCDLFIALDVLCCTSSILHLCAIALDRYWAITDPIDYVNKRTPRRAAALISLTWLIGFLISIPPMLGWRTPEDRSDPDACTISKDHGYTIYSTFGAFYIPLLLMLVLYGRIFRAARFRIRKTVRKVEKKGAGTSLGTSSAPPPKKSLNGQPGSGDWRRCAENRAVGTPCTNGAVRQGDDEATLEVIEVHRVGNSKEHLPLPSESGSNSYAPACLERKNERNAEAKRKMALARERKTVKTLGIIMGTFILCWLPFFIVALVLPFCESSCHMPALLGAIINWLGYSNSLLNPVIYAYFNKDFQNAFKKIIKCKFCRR
# Run Description: Antagonist activity against rat hippocampal tissue 5-hydroxytryptamine 1A receptor
# Assay type: functional, tissue-based, Hippocampus
Quantity Name: Ki (nM)
Number only, in nM; omit the unit.

- Smiles Notation: "CN(CCN1CCN(c2ncccn2)CC1)C(=O)C12C[C@H]3C[C@@H](C1)C[C@@H](C2)C3"
  Uom: "nM"
  Ki: 60
- Smiles Notation: "COc1ccccc1N1CCN(CCNC(=O)CC23C[C@H]4C[C@@H](C2)C[C@](C)(C4)C3)CC1"
  Uom: "nM"
  Ki: 11
- Smiles Notation: "Cl.Cl.O=C(N[C@@H](Cc1ccccc1)CN1CCN(Cc2ccccc2)CC1)C12C[C@H]3C[C@@H](C1)C[C@@H](C2)C3"
  Uom: "nM"
  Ki: 0.7
- Smiles Notation: "COc1ccccc1N1CCN(CCNC(=O)C23CC4C[C@@H](C[C@H]2C4)C3)CC1.Cl.Cl"
  Uom: "nM"
  Ki: 0.24
- Smiles Notation: "O=C(N[C@@H](Cc1ccccc1)CN1CCN(c2ncccn2)CC1)C12C[C@H]3C[C@@H](C1)C[C@@H](C2)C3"
  Uom: "nM"
  Ki: 1

Form: compound = `O=C(NC12C[C@H]3C[C@@H](C1)C[C@@H](C2)C3)OCCN1CCN(c2cccc(Cl)c2)CC1` ; Ki = 76

Form: compound = `Cl.Cl.O=C(NCCN1CCN(c2cccc(Cl)c2)CC1)C12C[C@H]3C[C@@H](C1)C[C@@H](C2)C3` ; Ki = 0.89

Form: compound = `Cl.Cl.O=C(NCCN1CCN(c2cccc(Cl)c2)CC1)C12CC3CC(CC1C3)C2` ; Ki = 0.7
